tested on: Methionine sulfoxide reductase A (Bos taurus); assay: bovine MsrA enzyme inhibitors, primary screen, biochemical, absorbance, HTS (AID 651718); settings: purified bovine MsrA, absorbance read-out; at 15.5 µM;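 note: 0% = vehicle wells with enzyme and 100% = reference inhibitor wells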
Hit rate of the full screen: of about 360,000 compounds, about 2,700 (0.75%) were called active. Cut-off read from the data, not from the text of the source: active = inhibition above about 4.5%; inactive = the rest. Many of the other results were omitted from the sample, so actives are more common in it than they were.
Select the matching outcome among active, inactive

Solved entries:
Could you please tell me the result logged for COc1cc(Cl)c(S(=O)(=O)n2cnc(C)c2)cc1Cl in this assay?
inactive

Could you please tell me the result logged for CC1=C(N2CCN(c3ncccn3)CC2)CCC1=O in this assay?
inactive

Could you please tell me the result logged for O=C(Cc1ccccn1)c1ccc(O)cc1O in this assay?
active

Could you please tell me the result logged for CCOC(=O)/C(C#N)=C\c1c(C)cc(C)c(COC(C)=O)c1C in this assay?
inactive

Could you please tell me the result logged for C=CCN1C(=O)N(Cc2ccccc2)c2ccccc2S1(=O)=O in this assay?
inactive

Could you please tell me the result logged for O=C(OCc1cc2ccccc2[nH]c1=O)c1cccnc1 in this assay?
inactive

Consider now this further compound.
Could you please tell me the result logged for COC(=O)N1Cc2ccnnc2CC1c1ccccc1Br (stereo not drawn) in this assay?
inactive

* * *

tested on: Methionine sulfoxide reductase A (Bos taurus); experiment: bovine MsrA enzyme inhibitors, primary screen, biochemical, absorbance, HTS (AID 651718); settings: purified bovine MsrA, absorbance read-out; at 15.5 µM; hits give high values;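 note: 0% = vehicle wells with enzyme and 100% = reference inhibitor wells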
About 2,700 (0.75%) of roughly 360,000 compounds were called active. Shown is part of a subset that was picked to be rich in actives.
measurement_type: inhibition (%)
# value in %; strip the unit string

Quick one: inhibition of CCN1CCCC1CNC(=O)c1cc2cc(OC)c(OC)cc2[nH]1 (stereo unspecified) ?
2.2

Quick one: inhibition of Cn1nnnc1SCC(=O)Nc1sccc1C(N)=O ?
0.13

Quick one: inhibition of N/C(=N\OS(=O)(=O)c1cccc([N+](=O)[O-])c1)c1ccncc1 ?
-0.51

***
Quick one: inhibition of CS(=O)(=O)c1ccc2nc(NC(=O)c3ccc(Cl)nc3)sc2c1 ?
4.77

Quick one: inhibition of CC1(C)C/C(=N/Nc2ccc([N+](=O)[O-])cc2[N+](=O)[O-])C(C)(C)O1 ?
-0.53

* * *

test system: Methionine sulfoxide reductase A (Bos taurus); assay: bovine MsrA enzyme inhibitors, primary screen, biochemical, absorbance, HTS (AID 651718); conditions: purified bovine MsrA, absorbance read-out; at 15.5 µM;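 note: 0% = vehicle wells with enzyme and 100% = reference inhibitor wells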
The whole screen tested about 360,000 compounds, of which about 2,700 (0.75%) were called active. Cut-off read from the data, not from the text of the source: active = inhibition above about 4.5%; inactive = the rest. The full list was thinned out, with actives kept by preference.
Select the matching outcome among yes for active, no for inactive

Solved entries:
Could you please tell me the result logged for CC(=O)N1N=C(c2ccccc2)OC1c1cccnc1 (configuration not stated) in this assay?
no

Could you please tell me the result logged for CCOC(OCC)c1ccc(/C=C\c2nccc(N)n2)cc1 in this assay?
yes

***
Could you please tell me the result logged for Brc1ccc(COCCc2cn(Cc3ccccc3)c3ccccc23)cc1 in this assay?
no

Could you please tell me the result logged for Cc1ccc(C(=O)NC2CCCC(C)C2C)cc1S(=O)(=O)N1CCCCC1 (configuration not stated) in this assay?
no

Could you please tell me the result logged for O=C(O)CC1S/C(=N\N=C/c2ccccc2O)N(c2ccc(O)cc2)C1=O (configuration not stated) in this assay?
yes

Could you please tell me the result logged for COc1ccccc1C1=CC(=O)C[C@H](c2ccc(F)cc2)C1 in this assay?
no

Could you please tell me the result logged for C/C(=N\NC(=O)COc1c(C)cccc1C)c1cccs1 in this assay?
no

Could you please tell me the result logged for CC(=O)N1N=C(c2ccncc2)OC1(Cc1ccccc1)Cc1ccccc1 in this assay?
yes

Could you please tell me the result logged for OC(CCl)CCl in this assay?
no

Could you please tell me the result logged for COc1ccccc1-c1n[nH]c2c1[C@H](C)CC[C@H]2C(C)C in this assay?
yes

Could you please tell me the result logged for CN1C(=O)C(CC(=O)Nc2ccccc2)S/C1=N/c1nccs1 (configuration not stated) in this assay?
no

Could you please tell me the result logged for O=C1C=C(c2cccc(Cl)c2O)C[C@@H](c2ccc(F)cc2)C1 in this assay?
no

Could you please tell me the result logged for COc1cccc(C2=CC(=O)C[C@H](c3ccc(F)cc3)C2)c1OC in this assay?
yes

Could you please tell me the result logged for CCCCNc1cccc2c1S(=O)(=O)N[C@@H](C)CO2 in this assay?
no

Could you please tell me the result logged for CN1CCN(CC(=O)C23CC4CC(CC(C4)C2)C3)CC1 in this assay?
no

Could you please tell me the result logged for COC(=O)Cc1nnn2c1[C@H](C)[C@@H](OC)c1cc(Br)ccc1-2 in this assay?
no

Could you please tell me the result logged for COc1ccc(CN2CCNC(=O)C2CC(=O)N(C)Cc2ccccn2)cc1OC (configuration not stated) in this assay?
no

Could you please tell me the result logged for Cc1nc2nc(SCC(=O)Nc3cccc(F)c3)[nH]c2cc1Br in this assay?
no

* * *

system: Methionine sulfoxide reductase A (Bos taurus); test: bovine MsrA enzyme inhibitors, primary screen, biochemical, absorbance, HTS (AID 651718); settings: purified bovine MsrA, absorbance read-out; at 15.5 µM; hits give high values;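 note: 0% = vehicle wells with enzyme and 100% = reference inhibitor wells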
About 2,700 (0.75%) of roughly 360,000 compounds were called active. The entries come from a sample that favours actives as a whole.
The entries below come with measured inhibition values attached.
# value in %; strip the unit string

// below: answered compounds
API: value(readout=inhibition, system=Methionine sulfoxide reductase A (Bos taurus)) for record COc1ccc(-c2ccc3c(n2)CCCN3S(=O)(=O)c2ccc(C)cc2)cc1
1.35

API: value(readout=inhibition, system=Methionine sulfoxide reductase A (Bos taurus)) for record CCOc1cc(/C=N/NC(=O)CN2CCCCC2)ccc1O
0.86

API: value(readout=inhibition, system=Methionine sulfoxide reductase A (Bos taurus)) for record CN(C)c1ccc(/C=N/NC(=O)c2ccc(Cn3cc(Br)cn3)o2)cc1
4.19

API: value(readout=inhibition, system=Methionine sulfoxide reductase A (Bos taurus)) for record COc1ccc(-c2cc3ccc(OCc4nn[nH]n4)cc3oc2=O)cc1
6.87

API: value(readout=inhibition, system=Methionine sulfoxide reductase A (Bos taurus)) for record Cc1ccc(S(=O)(=O)N(C)c2ccc(OCC(=O)NC3=NCCS3)cc2)cc1
-0.97

API: value(readout=inhibition, system=Methionine sulfoxide reductase A (Bos taurus)) for record CCCN1C(=O)c2[nH]nc(-c3ccccc3)c2C1c1ccccc1 (configuration not stated)
0.64

API: value(readout=inhibition, system=Methionine sulfoxide reductase A (Bos taurus)) for record O=[N+]([O-])c1ccccc1/C=N/n1c(COc2ccccc2)n[nH]c1=S
0.65

API: value(readout=inhibition, system=Methionine sulfoxide reductase A (Bos taurus)) for record Cc1ccc(C(=O)N2CCCc3ccccc32)c(Cl)c1
-0.31

API: value(readout=inhibition, system=Methionine sulfoxide reductase A (Bos taurus)) for record S=c1[nH]nc(-c2ccccc2)n1/N=C/c1c[nH]c2ccccc12
5.73

API: value(readout=inhibition, system=Methionine sulfoxide reductase A (Bos taurus)) for record COc1ccc(/C=C/C(=O)Nc2cccnc2)cc1OC
5.32

***
API: value(readout=inhibition, system=Methionine sulfoxide reductase A (Bos taurus)) for record Cc1ccc2nc(-c3ccc(CN4CCC(n5cc(-c6ccccc6)[nH]c5=O)CC4)cc3)c(-c3ccccc3)nc2c1
1.47

API: value(readout=inhibition, system=Methionine sulfoxide reductase A (Bos taurus)) for record Cc1ccc(S(=O)(=O)N(C)c2ccc(OCC(=O)OCc3ccc(C#N)cc3)cc2)cc1
7.12

* * *

tested on: Methionine sulfoxide reductase A (Bos taurus); test: bovine MsrA enzyme inhibitors, primary screen, biochemical, absorbance, HTS (AID 651718); details: purified bovine MsrA, absorbance read-out; at 15.5 µM; hits give high values;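 note: 0% = vehicle wells with enzyme and 100% = reference inhibitor wells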
In all, about 360,000 compounds went through this assay and about 2,700 (0.75%) were called active. Many of the other results were omitted from the sample, so actives are more common in it than they were.
The entries below come with measured inhibition values attached.
# value in %; strip the unit string

// below: answered molecules
Quick one: inhibition of CCOc1ccc2[nH]c(C(=O)N/N=C/c3cccc(OC)c3OC)cc2c1 ?
5.19

Quick one: inhibition of Cc1cccc(N2CCN(c3ccc(C(N)=O)cc3[N+](=O)[O-])CC2)c1C ?
-0.25

Quick one: inhibition of COC(=O)[C@]12C[C@H](CC(=O)NCc3cccc(C(F)(F)F)c3)C(=O)N(Cc3ccc4c(c3)OCO4)C1=C[C@H](COCc1ccccc1)O[C@@H]2C ?
0.87

***
Quick one: inhibition of C=CCNC(=S)N/N=C/c1ccc(C)s1 ?
4.91

Quick one: inhibition of Nc1ncnc2c1ncn2C1OC(CO)CC1O (stereo not drawn) ?
1.51

Quick one: inhibition of Oc1oc(-c2ccccc2Br)nc1/C=N/c1ccccn1 ?
2.4

Quick one: inhibition of C/C(=N\Nc1ccccc1)c1cccs1 ?
-0.47

Quick one: inhibition of C/C(=N\Nc1ccc(S(N)(=O)=O)cc1[N+](=O)[O-])c1cccs1 ?
4.74

Quick one: inhibition of Cn1nc(C(=O)OCC(=O)N(Cc2ccccc2)C(C)(C)C)c2ccccc2c1=O ?
-1.57

Quick one: inhibition of O=C(Cc1ccc([N+](=O)[O-])cc1)N/N=C/c1ccco1 ?
1.04

Quick one: inhibition of COc1ccc(/C=N\NC(=O)c2sc(N)nc2C)cc1OC ?
7.88

Quick one: inhibition of COC(=O)c1c(-c2ccc(OC)cc2)c2c(c3c4ccccc4n(S(=O)(=O)c4ccc(C)cc4)c13)C(=O)N(C)C2 ?
1.59

Quick one: inhibition of O=C(O)c1ccc(NN=CC2=C(N3CCOCC3)/C(=C/c3ccccc3)CC2)cc1 ?
2.43

Quick one: inhibition of Cc1cc(C(=O)N/N=C/c2ccc(O)c([N+](=O)[O-])c2)c(C)n1-c1ccc(F)cc1 ?
4.88
